B1: MED27 (parent)
chain: YNENVYTEDGKLDIWSKSNYQVFQ

Variants of: B1
Test Description: protein stability index of a GFP-peptide fusion (GPS, HEK-293T) (PSI 1-6); higher = more stable;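 also: lentivirally expressed fusions sorted by FACS into six bins by GFP to DsRed ratio, PSI derived from sequencing read proportions per bin multiplied by bin number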
Assay Setup: c terminus: a fixed tail appended
Readings of protein stability index for the listed variants

response.value for L12W (field: protein stability index) = 2.2
